TARGET_DESC: 17-beta-hydroxysteroid dehydrogenase type 1 (Homo sapiens) (UniProt P14061)
Sequence (P14061 whole entry): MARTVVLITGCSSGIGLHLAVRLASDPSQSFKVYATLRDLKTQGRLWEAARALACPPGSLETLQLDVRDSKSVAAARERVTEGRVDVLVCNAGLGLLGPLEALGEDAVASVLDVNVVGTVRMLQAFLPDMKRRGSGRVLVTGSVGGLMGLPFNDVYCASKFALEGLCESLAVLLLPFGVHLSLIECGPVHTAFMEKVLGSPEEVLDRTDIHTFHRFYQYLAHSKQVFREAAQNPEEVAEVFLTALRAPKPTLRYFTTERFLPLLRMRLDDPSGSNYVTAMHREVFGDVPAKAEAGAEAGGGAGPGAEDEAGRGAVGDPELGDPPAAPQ
TEST_DETAILS: Inhibition of recombinant human 17beta-HSD1 expressed in HEK293 cells assessed as residual activity at 20 uM using estrone as substrate after 10 mins in presence of radiolabeled tracer substrate by scintillation counting method relative to control
Type: cell-based

SAMPLE_SMILES | Activity
Cc1ccc(O)c(NS(=O)(=O)c2ccc(C(C)(C)C)cc2)c1 | 38%
O=c1cc(-c2ccc(O)cc2)oc2cc(O)cc(O)c12 | 11%
CC(C)(C)c1ccc(S(=O)(=O)Nc2c(O)ccc3ccccc23)cc1 | 46%
CC(C)(C)c1ccc(S(=O)(=O)Nc2cc(Cl)c(Cl)cc2N)cc1 | 23%
CC(C)(C)c1ccc(S(=O)(=O)Nc2cc(Cl)ccc2O)cc1 | 15%
CC(C)(C)c1ccc(S(=O)(=O)Nc2cc(Cl)ccc2N)cc1 | 46%
Cc1cc(C)c(O)c(NS(=O)(=O)c2ccc(C(C)(C)C)cc2)c1 | 19%
CC(C)(C)c1ccc(S(=O)(=O)Nc2cc(-c3ccccc3)ccc2O)cc1 | 13%
CC(C)(C)c1ccc(S(=O)(=O)Nc2ccc(F)cc2N)cc1 | 56%
Cc1ccc(NS(=O)(=O)c2ccc(C(C)(C)C)cc2)c(O)c1 | 35%
CC(C)(C)c1ccc(S(=O)(=O)Nc2ccccc2O)cc1 | 41%

---

TARGET_DESC: 11-beta-hydroxysteroid dehydrogenase 1 (Homo sapiens) (UniProt P28845)
Sequence (P28845 whole entry, looked up): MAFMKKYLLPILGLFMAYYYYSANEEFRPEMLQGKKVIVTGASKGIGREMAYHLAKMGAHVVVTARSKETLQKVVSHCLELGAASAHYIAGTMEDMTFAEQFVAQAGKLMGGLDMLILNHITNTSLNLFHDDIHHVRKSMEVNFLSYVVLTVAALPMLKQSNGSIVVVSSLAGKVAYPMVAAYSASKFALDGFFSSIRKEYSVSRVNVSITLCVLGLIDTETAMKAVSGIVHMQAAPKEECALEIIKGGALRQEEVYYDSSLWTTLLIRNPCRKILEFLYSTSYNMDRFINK
TEST_DETAILS: Inhibition of recombinant human 11beta-HSD1 expressed in HEK293 cells assessed as residual activity at 20 uM using cortisone as substrate after 10 mins in presence of radiolabeled tracer substrate by scintillation counting method relative to control
Format: cell-based
The following compounds are listed with their measured Activity values.

SAMPLE_SMILES | READOUT_UNIT | Activity
CC(C)(C)c1ccc(S(=O)(=O)Nc2cc(Cl)c(Cl)cc2N)cc1 | % | 74
CC(C)(C)c1ccc(S(=O)(=O)Nc2ccc(F)cc2N)cc1 | % | 26
CC(C)(C)c1ccc(S(=O)(=O)Nc2cc(Cl)ccc2N)cc1 | % | 28
Cc1cc(C)c(O)c(NS(=O)(=O)c2ccc(C(C)(C)C)cc2)c1 | % | 43
Cc1ccc(NS(=O)(=O)c2ccc(C(C)(C)C)cc2)c(O)c1 | % | 24
CC(C)(C)c1ccc(S(=O)(=O)Nc2cc(Cl)ccc2O)cc1 | % | 35
CC(C)(C)c1ccc(S(=O)(=O)Nc2c(O)ccc3ccccc23)cc1 | % | 21
CC(C)(C)c1ccc(S(=O)(=O)Nc2ccccc2O)cc1 | % | 37
Cc1ccc(O)c(NS(=O)(=O)c2ccc(C(C)(C)C)cc2)c1 | % | 46
CC(C)(C)c1ccc(S(=O)(=O)Nc2cc(-c3ccccc3)ccc2O)cc1 | % | 62

---

TARGET_DESC: 17-beta-hydroxysteroid dehydrogenase type 2 (Homo sapiens) (UniProt P37059)
Sequence (P37059 whole entry): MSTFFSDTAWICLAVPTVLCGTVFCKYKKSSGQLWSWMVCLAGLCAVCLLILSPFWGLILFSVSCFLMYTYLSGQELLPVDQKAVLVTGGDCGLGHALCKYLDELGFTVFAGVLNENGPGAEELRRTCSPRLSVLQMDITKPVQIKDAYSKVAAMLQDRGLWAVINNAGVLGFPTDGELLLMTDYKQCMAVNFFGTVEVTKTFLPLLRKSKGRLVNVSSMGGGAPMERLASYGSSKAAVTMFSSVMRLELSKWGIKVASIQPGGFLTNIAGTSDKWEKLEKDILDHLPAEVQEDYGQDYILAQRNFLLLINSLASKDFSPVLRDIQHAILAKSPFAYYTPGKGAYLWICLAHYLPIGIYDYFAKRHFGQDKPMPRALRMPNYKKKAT
TEST_DETAILS: Inhibition of recombinant human 17beta-HSD2 expressed in HEK293 cells assessed as residual activity at 20 uM using estradiol as substrate after 10 mins in presence of radiolabeled tracer substrate by scintillation counting method relative to control
Type: cell-based
The following molecules are listed with their measured Activity values.

SAMPLE_SMILES | READOUT_UNIT | Activity
CC(C)(C)c1ccc(S(=O)(=O)Nc2ccccc2O)cc1 | % | 5
CC(C)(C)c1ccc(S(=O)(=O)Nc2ccccc2N)cc1 | % | 46
CC(C)(C)c1ccc(S(=O)(=O)Nc2ccc(Cl)cc2N)cc1 | % | 35
Cc1ccc(OS(=O)(=O)c2ccc(C(C)(C)C)cc2)c(N)c1 | % | 37
CC(C)(C)c1ccc(S(=O)(=O)Nc2c(O)ccc3ccccc23)cc1 | % | 7
Cc1ccc(N)c(OS(=O)(=O)c2ccc(C(C)(C)C)cc2)c1 | % | 36
CC(C)(C)c1ccc(S(=O)(=O)Oc2ccccc2N)cc1 | % | 33
Cc1cc(N)c(NS(=O)(=O)c2ccc(C(C)(C)C)cc2)cc1C | % | 58
Cc1cc(S(=O)(=O)Nc2cccc(O)c2)c(C)cc1Cl | % | 10
CC(C)(C)c1ccc(S(=O)(=O)Nc2ccc(F)cc2N)cc1 | % | 36
Cc1cc(C)c(O)c(NS(=O)(=O)c2ccc(C(C)(C)C)cc2)c1 | % | 18
CC(C)(C)c1ccc(S(=O)(=O)Nc2cc(Cl)c(Cl)cc2N)cc1 | % | 11
CC(C)(C)c1ccc(S(=O)(=O)Oc2ccc3ccccc3c2N)cc1 | % | 43
Cc1cc(C)c(OS(=O)(=O)c2ccc(C(C)(C)C)cc2)c(N)c1 | % | 49
CC(C)(C)c1ccc(S(=O)(=O)Nc2cc(-c3ccccc3)ccc2O)cc1 | % | 2
CC(C)(C)c1ccc(S(=O)(=O)Oc2ccc(-c3ccccc3)cc2N)cc1 | % | 86
Cc1ccc(O)c(NS(=O)(=O)c2ccc(C(C)(C)C)cc2)c1 | % | 13
CC(C)(C)c1ccc(S(=O)(=O)Oc2ccc(Cl)cc2N)cc1 | % | 44
Cc1ccc(NS(=O)(=O)c2ccc(C(C)(C)C)cc2)c(O)c1 | % | 22
CC(C)(C)c1ccc(S(=O)(=O)Nc2cc(Cl)ccc2O)cc1 | % | 6

---

TARGET_DESC: 11beta-HSD2 (11-beta-hydroxysteroid dehydrogenase type 2) (Homo sapiens, UniProt P80365)
Sequence (P80365 whole entry): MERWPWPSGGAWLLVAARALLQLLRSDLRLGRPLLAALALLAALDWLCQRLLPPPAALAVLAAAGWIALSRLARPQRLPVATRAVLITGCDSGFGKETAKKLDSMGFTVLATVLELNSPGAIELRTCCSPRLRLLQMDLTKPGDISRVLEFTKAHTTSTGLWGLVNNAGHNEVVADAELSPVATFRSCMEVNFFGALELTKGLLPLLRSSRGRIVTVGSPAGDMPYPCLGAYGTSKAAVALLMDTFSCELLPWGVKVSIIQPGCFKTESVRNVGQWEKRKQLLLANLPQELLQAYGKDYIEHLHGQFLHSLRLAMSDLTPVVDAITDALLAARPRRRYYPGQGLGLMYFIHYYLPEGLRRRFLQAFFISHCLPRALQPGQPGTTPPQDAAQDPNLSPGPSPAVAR
TEST_DETAILS: Inhibition of recombinant human 11beta-HSD2 expressed in HEK293 cells assessed as residual activity at 20 uM using cortisol as substrate after 10 mins in presence of radiolabeled tracer substrate by scintillation counting method relative to control
Format: cell-based
EXPERIMENTAL_CONTEXT: HEK293 cells expressing recombinant human 11beta-HSD2, probe cortisol, read-out: Activity
MEASUREMENT_LABEL: activity at 10 min, 20 µM (%)

SAMPLE_SMILES | MEASURED_NUMBER
Cc1ccc(O)c(NS(=O)(=O)c2ccc(C(C)(C)C)cc2)c1 | 63
Cc1cc(C)c(O)c(NS(=O)(=O)c2ccc(C(C)(C)C)cc2)c1 | 37
Cc1ccc(NS(=O)(=O)c2ccc(C(C)(C)C)cc2)c(O)c1 | 62
CC(C)(C)c1ccc(S(=O)(=O)Nc2cc(Cl)ccc2N)cc1 | 75
CC(C)(C)c1ccc(S(=O)(=O)Nc2cc(Cl)c(Cl)cc2N)cc1 | 21
CC(C)(C)c1ccc(S(=O)(=O)Nc2cc(-c3ccccc3)ccc2O)cc1 | 3
CC(C)(C)c1ccc(S(=O)(=O)Nc2ccccc2O)cc1 | 83
CC(C)(C)c1ccc(S(=O)(=O)Nc2c(O)ccc3ccccc23)cc1 | 21
CC(C)(C)c1ccc(S(=O)(=O)Nc2ccc(F)cc2N)cc1 | 97
CC(C)(C)c1ccc(S(=O)(=O)Nc2cc(Cl)ccc2O)cc1 | 7
